- target_entity: T1, Met extracellular domain fragment (residues 25-567, sema domain and cysteine-rich domain) with C-terminal … (UniProt P08581 25-307; P08581 308-567)
- T1 construct: also called 6his-Met; Met sema domain
- test_summary: SPR, MET567 amine-coupled to a CM5 chip, ligand in flow
measured_endpoint: Kd (nM)

binder	measured_endpoint	measurement
NK1 linker mutant LC (Y124A), P. pastoris (ligand) YAEGQRKRRNTIHEFKKSAKTTLIKIDPALKIKTKKVNTADQCANRCTRNKGLPFTCKAFVFDKARKQCLWFPFNSMSSGVKKEFGHEFDLYENKDAIRNCIIGKGRSYKGTVSITKSGIKCQPWSSMIPHEHSFLPSSYRGKDLQENYCRNPRGEEGGPWCFTSNPEVRYEVCDIPQCSEV	Kd	149
